experiment: chemical genetic growth profiling, strain panel (AID 1159580);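 note: tested at 20 µM; growth read once vehicle control cultures reached saturation at 30 °C; lower values mean less growth of the strain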; conditions: S. cerevisiae deletion strains, growth OD, strain wtn01
The campaign covered roughly 5,500 compounds. About 2,000 (36%) were called active. About 18% were inconclusive and are not listed. Cut-off read from the data, not from the text of the source: active = normalized growth mostly below about 0.91 (no sharp cut-off); inconclusive = no clear call, values can overlap the other calls; inactive = mostly above about 0.92. The list shows a part of the results.
Outcome codes: True = active, False = inactive

INSERT INTO results (compound, qualitativelabel) VALUES
  ('CN1CCC(OC(c2ccccc2)c2ccccc2)CC1', 'False'),
  ('C=C[C@@](C)(O)CCC1C(=C)CCC2[C@@](C)(CO)CCC[C@]12C (stereo not given in full)', 'False'),
  ('CC[C@H]1OC(=O)[C@H](C)[C@@H](O[C@H]2C[C@@](C)(OC)[C@@H](O)[C@H](C)O2)[C@H](C)[C@@H](O[C@@H]2O[C@H](C)C[C@H](N(C)C)[C@H]2O)[C@](C)(OC)C[C@@H](C)C(=O)[C@H](C)[C@@H](O)[C@]1(C)O', 'False'),
  ('Clc1ccc(C(OCCN2CCCCC2)c2ccccc2)cc1 (stereo not given)', 'False'),
  ('CCCCCCCCCCC[C@@H](C[C@H]1OC(=O)[C@H]1CCCCCC)OC(=O)[C@@H](CC(C)C)NC=O', 'False'),
  ('CCCCCCC(C)OC(=O)COc1cc(Cl)c(Cl)cc1Cl (stereo not given)', 'False'),
  ('COC(=O)c1cc(=O)c(O)c2c(O)c(O)ccc2c1', 'True'),
  ('Cn1c(=O)c2c(ncn2CC(O)CO)n(C)c1=O (stereo not given)', 'False'),
  ('NCCc1cnc[nH]1', 'False'),
  ('C=C1CCC2[C@](C)(CO)[C@H](O)CC[C@@]2(C)[C@@H]1C/C=C1/C(=O)OC[C@H]1O (stereo not given in full)', 'False'),
  ('O=C(O[C@@H]1Cc2c(O)cc(O)cc2O[C@@H]1c1ccc(O)c(O)c1)c1cc(O)c(O)c(O)c1', 'False'),
  ('O=c1cccc2ccc(O)c(O)c2c1O', 'True'),
  ('O=C(O)c1cc2cc(F)ccc2[nH]1', 'False'),
  ('CC[C@@]1(O)C[C@H](O)c2c(cc3c(c2O)C(=O)c2c(O)ccc(O)c2C3=O)[C@H]1C(=O)OC', 'True'),
  ('CC(C)NCC(O)COc1cccc2[nH]ccc12 (stereo not given)', 'False'),
  ('C=C[C@@](C)(O)CCC1C(=C)C[C@H](OC(C)=O)C2C(C)(C)CCCC12C (stereo not given in full)', 'False'),
  ('CN(C)CCOC(c1ccc(Cl)cc1)c1ccccn1 (stereo not given)', 'False'),
  ('COc1ccc(C(=O)CC(=O)O)c2c1C=CC(C)(C)O2', 'False'),
  ('CCC1(O)CC(OC2CC(N(C)C)C(OC3CC(O)C(OC4CCC(=O)C(C)O4)C(C)O3)C(C)O2)c2c(cc3c(c2O)C(=O)c2c(O)cccc2C3=O)C1C(=O)OC (stereo not given)', 'False'),
  ('OCC(O)CN1CCN(c2ccccc2)CC1 (stereo not given)', 'False');
